- Test system: NCI-H1993
- Assay Name: relative viability (nuclei count vs DMSO), 5 days (fraction); higher = more cells survive
- Experimental Context: first compound 0.253 µM
Kindly supply the reported relative viability values for the records listed here.
Number only, please.

Please report relative viability for the following compound: Oc1nc(-c2ccc(C(F)(F)F)cc2)nc2c1CSCC2 [XAV939] + CC(=O)Nc1cccc(-n2c(=O)n(C3CC3)c(=O)c3c(Nc4ccc(I)cc4F)n(C)c(=O)c(C)c32)c1 [Trametinib] (partner 0.02 µM)
0.488

Please report the measured relative viability for Oc1nc(-c2ccc(C(F)(F)F)cc2)nc2c1CSCC2 [XAV939] + Nc1nc2[nH]cc(CCc3ccc(C(=O)N[C@@H](CCC(=O)O)C(=O)O)cc3)c2c(=O)[nH]1 [Pemetrexed] (partner 0.2 µM)
0.471

Check the records and state relative viability for Oc1nc(-c2ccc(C(F)(F)F)cc2)nc2c1CSCC2 [XAV939] + NC(=O)Nc1cc(-c2cccc(F)c2)sc1C(=O)N[C@H]1CCCNC1 [AZD7762] (partner 0.2 µM)
0.569

Specify reported relative viability for the compound shown: C=C1C(=O)O[C@@H](CCCCCCCC)[C@@H]1C(=O)O [C-75] + Cc1nc(NC(=O)N2CCC[C@H]2C(N)=O)sc1-c1ccnc(C(C)(C)C(F)(F)F)c1 [Alpelisib] (partner 2 µM)
0.738

Provide relative viability value for the following compound: C=C1C(=O)O[C@@H](CCCCCCCC)[C@@H]1C(=O)O [C-75] + CS(=O)(=O)N1CCN(Cc2cc3nc(-c4cccc5[nH]ncc45)nc(N4CCOCC4)c3s2)CC1 [Pictilisib] (partner 1 µM)
0.938

Could you please provide reported relative viability for C=C1C(=O)O[C@@H](CCCCCCCC)[C@@H]1C(=O)O [C-75] + Nc1ncn([C@H]2C[C@H](O)[C@@H](CO)O2)c(=O)n1 [Decitabine] (partner 2 µM) ? Thanks!
0.685

====

- Test system: PC-14
- Assay Name: relative viability (nuclei count vs DMSO), 5 days (fraction); higher = more cells survive
- Experimental Context: first compound 0.005 µM
Answer each item with its documented relative viability.
Returns: the value as a bare number; no unit string appended.

Report relative viability for CC1(C)CCC(c2ccc(Cl)cc2)=C(CN2CCN(c3ccc(C(=O)NS(=O)(=O)c4ccc(N[C@H](CCN5CCOCC5)CSc5ccccc5)c(S(=O)(=O)C(F)(F)F)c4)cc3)CC2)C1 [Navitoclax] + NC(=O)Nc1cc(-c2cccc(F)c2)sc1C(=O)N[C@H]1CCCNC1 [AZD7762] (partner 0.2 µM)
0.326

Identify measured relative viability associated with CC1(C)CCC(c2ccc(Cl)cc2)=C(CN2CCN(c3ccc(C(=O)NS(=O)(=O)c4ccc(N[C@H](CCN5CCOCC5)CSc5ccccc5)c(S(=O)(=O)C(F)(F)F)c4)cc3)CC2)C1 [Navitoclax] + COc1cccc2cc(-c3nc([C@H]4CC[C@H](C(=O)O)CC4)n4ncnc(N)c34)[nH]c12 [OSI-027] (partner 0.5 µM)
0.735

====

- Tested on: NCI-H1563
- Assay Name: relative viability (nuclei count vs DMSO), 5 days (fraction); higher = more cells survive
- Experimental Context: first compound 0.8 µM
Field: relative viability. Provide a value for each of the compounds that follow.
Just the number.

Look up relative viability of Oc1nc(-c2ccc(C(F)(F)F)cc2)nc2c1CSCC2 [XAV939] + COc1cc2c(Oc3ccc(NC(=O)C4(C(=O)Nc5ccc(F)cc5)CC4)cc3F)ccnc2cc1OCCCN1CCOCC1 [Foretinib] (partner 0.25 µM) and report it.
0.831

Quick one: give measured relative viability for C=C1C(=O)O[C@@H](CCCCCCCC)[C@@H]1C(=O)O [C-75] + Cc1nc(NC(=O)N2CCC[C@H]2C(N)=O)sc1-c1ccnc(C(C)(C)C(F)(F)F)c1 [Alpelisib] (partner 2 µM)
0.886

For Oc1nc(-c2ccc(C(F)(F)F)cc2)nc2c1CSCC2 [XAV939] + C[C@@H](Oc1cc(-c2cnn(C3CCNCC3)c2)cnc1N)c1c(Cl)ccc(F)c1Cl [Crizotinib] (partner 1 µM) , write its relative viability.
0.789

Read the entry Oc1nc(-c2ccc(C(F)(F)F)cc2)nc2c1CSCC2 [XAV939] + C[C@]1(O)C[C@@H](c2nc(-c3ccc4ccc(-c5ccccc5)nc4c3)c3c(N)nccn32)C1 [Linsitinib] (partner 1 µM) and write its reported relative viability.
1.07

Return reported relative viability. Input compound: C=C1C(=O)O[C@@H](CCCCCCCC)[C@@H]1C(=O)O [C-75] + COc1cc2c(Oc3ccc(NC(=O)C4(C(=O)Nc5ccc(F)cc5)CC4)cc3F)ccnc2cc1OCCCN1CCOCC1 [Foretinib] (partner 0.25 µM)
0.883

Query relative viability for Oc1nc(-c2ccc(C(F)(F)F)cc2)nc2c1CSCC2 [XAV939] + CCNC(=O)c1noc(-c2cc(C(C)C)c(O)cc2O)c1-c1ccc(CN2CCOCC2)cc1 [Luminespib] (partner 0.01 µM)
0.505
